Data credit: ChEMBL document CHEMBL1141616

experiment: Inhibition of baboon liver mitochondrial MAOB; parameters: species or system Papio hamadryas
pKi: −log10 of the molar value.
Label criterion met when pKi >= 5; otherwise criterion not met.

Recorded results for 8 molecules are shown here.
chemical_string=Cn1ccc(-c2cccc(C(F)(F)F)c2)c1 classification="criterion met"
chemical_string=COc1ccc(-c2ccn(C)c2)cc1 classification="criterion not met"
chemical_string=Cn1ccc(-c2ccc(C(F)(F)F)cc2)c1 classification="criterion met"
chemical_string=Cc1cccc(-c2ccn(C)c2)c1 classification="criterion not met"
chemical_string=Cn1ccc(-c2ccccc2)c1 classification="criterion not met"
chemical_string=Cn1ccc(-c2ccc(Br)cc2)c1 classification="criterion met"
chemical_string=Cn1ccc(-c2cccc(Br)c2)c1 classification="criterion not met"
chemical_string=COc1cccc(-c2ccn(C)c2)c1 classification="criterion not met"

# check: pKi of Cn1ccc(-c2cccc(Cl)c2)c1 is greater than or equal to 5
criterion not met

# check: pKi of Cn1ccc(-c2ccc(Cl)cc2)c1 is greater than or equal to 5
criterion not met

# check: pKi of Cn1ccc(-c2ccc(F)cc2)c1 is greater than or equal to 5
criterion not met

# check: pKi of Cn1ccc(-c2cccc(F)c2)c1 is greater than or equal to 5
criterion not met

# check: pKi of Cc1ccc(-c2ccn(C)c2)cc1 is greater than or equal to 5
criterion not met
